test_description: RAM signaling pathway blockade in yeast – S. cerevisiae, Pdr1DBD-CYC8 efflux-inhibited sensitized strain, primary screen (AID 1298);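 also: 0% = DMSO untreated cells without growth and 100% = 10 µM 1-NA-PP1 full growth; higher means more yeast growth rescued from 5-FOA killing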
study_conditions: S. cerevisiae cbk1-as DSE1-URA3 strain, 5-FOA growth OD615, 2 d; at 50 µM; stronger effect = higher value
property_measured: RAM network inhibition (%)
Supply the numeric figure in %, leaving out any unit text.

>>> number("CCCCCOC(=O)c1[nH]c2c(c1C)C(=O)CC(c1ccco1)C2 (stereo unspecified)")
-0.31
>>> number("CCN1C(=O)CSc2ccc(C(=O)OC)cc21")
-0.69
>>> number("Oc1c(C(c2cccs2)N2CCN(c3cccc(Cl)c3)CC2)sc2ncnn12 (stereo unspecified)")
3.42

Task: May I ask what RAM network inhibition has been recorded for C#CCN1C(=O)C(O)(CC(=O)c2ccc(OC)c(OC)c2)c2ccccc21 (stereo unspecified) ?
Output: 1.98

Task: May I ask what RAM network inhibition has been recorded for O=C(NC1CCCc2ccccc21)C1CCN(C(=O)c2sccc2-n2cccc2)CC1 (stereo unspecified) ?
Output: 4.28

---

# reported Her2 level; entries follow
experimental_target: Receptor tyrosine-protein kinase erbB-2 (Homo sapiens) (UniProt P04626)
Sequence (P04626 whole entry, looked up): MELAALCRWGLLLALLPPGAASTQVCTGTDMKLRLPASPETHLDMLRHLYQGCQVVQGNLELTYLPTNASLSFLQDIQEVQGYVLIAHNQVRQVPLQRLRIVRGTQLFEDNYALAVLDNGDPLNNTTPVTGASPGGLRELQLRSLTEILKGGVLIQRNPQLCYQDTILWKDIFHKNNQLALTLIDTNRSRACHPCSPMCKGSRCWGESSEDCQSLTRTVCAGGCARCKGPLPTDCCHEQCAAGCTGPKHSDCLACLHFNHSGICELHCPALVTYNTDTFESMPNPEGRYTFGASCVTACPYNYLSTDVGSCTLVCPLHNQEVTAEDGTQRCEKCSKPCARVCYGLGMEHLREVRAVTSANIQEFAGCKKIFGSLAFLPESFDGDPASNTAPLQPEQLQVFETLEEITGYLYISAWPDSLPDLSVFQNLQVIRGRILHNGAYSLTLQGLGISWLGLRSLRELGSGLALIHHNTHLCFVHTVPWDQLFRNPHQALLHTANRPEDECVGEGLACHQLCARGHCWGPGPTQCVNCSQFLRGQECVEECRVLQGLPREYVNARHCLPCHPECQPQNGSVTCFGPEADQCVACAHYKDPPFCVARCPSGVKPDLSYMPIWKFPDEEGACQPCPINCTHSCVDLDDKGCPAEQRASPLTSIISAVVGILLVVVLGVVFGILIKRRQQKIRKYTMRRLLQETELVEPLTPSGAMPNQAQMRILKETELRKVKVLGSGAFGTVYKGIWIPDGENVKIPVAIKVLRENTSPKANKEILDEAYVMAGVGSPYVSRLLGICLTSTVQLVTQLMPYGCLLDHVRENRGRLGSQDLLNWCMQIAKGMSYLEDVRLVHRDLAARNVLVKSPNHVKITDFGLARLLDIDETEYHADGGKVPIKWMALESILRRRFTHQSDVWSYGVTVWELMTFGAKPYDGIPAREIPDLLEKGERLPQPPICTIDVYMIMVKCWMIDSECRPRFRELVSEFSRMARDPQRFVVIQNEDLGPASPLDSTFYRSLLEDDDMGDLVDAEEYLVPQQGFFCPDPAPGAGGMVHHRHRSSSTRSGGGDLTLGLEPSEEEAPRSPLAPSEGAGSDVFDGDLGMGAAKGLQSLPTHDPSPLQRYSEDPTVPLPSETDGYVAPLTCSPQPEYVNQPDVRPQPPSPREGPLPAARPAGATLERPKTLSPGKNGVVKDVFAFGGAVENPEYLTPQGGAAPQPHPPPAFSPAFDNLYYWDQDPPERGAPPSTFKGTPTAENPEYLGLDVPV
test_description: reducers of endogenous Her2 protein level, primary screen, SKBR3 breast tumor cells, AlphaScreen, ATP viability (AID 461);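 as to Her2 level: lower value means less Her2 protein in the cells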;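 as to viability: percent of carrier control wells set as 100% viability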
study_conditions: 18-24 h, at 10 µM, stronger effect = lower value
Supply the numeric figure in %, leaving out any unit text.

>>> number("CC(C)(C)OC(=O)N1CCC(C(=O)N2CCCCCC2)CC1")
87.5
>>> number("CCc1cc2ccc(C)cc2nc1SCC(=O)N1CCN(C(=O)c2ccco2)CC1")
82
>>> number("Cc1ccc(S(=O)(=O)NCCC(=O)OCn2nnc3ccccc3c2=O)cc1")
82.5

Task: May I ask what Her2 level has been recorded for Nc1nnc(C(=O)c2ccccc2N)s1 ?
Output: 91

Task: May I ask what Her2 level has been recorded for Clc1ccc(Cn2ncc3c(NCc4cccnc4)ncnc32)cc1 ?
Output: 86

Task: May I ask what Her2 level has been recorded for CC(=O)O[C@]1(C(C)=O)CC[C@H]2[C@@H]3C=C(C)C4=CC(=O)CC[C@]4(C)[C@H]3CC[C@@]21C ?
Output: 88

Task: May I ask what Her2 level has been recorded for Nc1sccc1C(=O)c1ccccc1 ?
Output: 118

---

test_description: growth suppression of PTEN-deleted HCT116, pilot screen, cell-based, HCT116 clonal line, CellTiter-Glo (AID 824);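 also: 0% = 20 µM Hyamine control and 100% = vehicle cell control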
study_conditions: 60 h, at 10 µM, stronger effect = lower value
Inconclusive results are not listed.
Note to self: viability under 90% means Met, ties and anything higher get Not met.

Example cases with answers are listed next.
>>> label_value("CCCc1cc(C(=O)Nc2ccc(C)cc2)no1")
"Not met"
>>> label_value("Clc1ccc(-c2nnn(Cc3nc4ccccc4s3)n2)cc1")
"Not met"
>>> label_value("CC(C)CCNC(=O)C1C2C=CC3(CN(Cc4ccccc4Cl)C(=O)C13)O2 (centres undefined)")
"Not met"
>>> label_value("CC(=O)c1ccc(C(=O)Nc2nnc(-c3ccc(Cl)cc3)o2)cc1")
"Met"
>>> label_value("CC(C)Sc1nc(-c2cccs2)nc2c1c(=O)n(C)c(=O)n2C")
"Met"
>>> label_value("O=C(CSc1nnnn1-c1cccc2c1CCCC2)N1CCOCC1")
"Not met"

Turning now to a further compound:
Task: For CC(CCCC(C)(C)O)NCCO (centres undefined) , is the recorded viability below the cut-off of 90%?
Output: Not met

---

test_description: inhibitors of the yeast RAM network, pilot screen, dse1pr::URA3 reporter, 5-FOA selection (AID 869);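 also: 0% = DMSO wells with no growth and 100% = 10 µM 1-NA-PP1 with full growth; RAM network block rescues cells from 5-FOA so hits raise OD615 growth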
study_conditions: S. cerevisiae dse1pr::URA3 5-FOA growth, OD615, 2 d; at 10 µM; stronger effect = higher value; strain carries analog-sensitive mutant Cbk1 kinase
# reported inhibition; entries follow
Supply the numeric figure in %, leaving out any unit text.

>>> number("COc1ccc(S(=O)(=O)Nc2ccc(S(=O)(=O)N3CCOCC3)cc2)cc1")
1.18

Task: May I ask what inhibition has been recorded for O=C(CSc1nccn1-c1cccc(Cl)c1)Nc1ccc2c(c1)OCCO2 ?
Output: 2.52

Task: May I ask what inhibition has been recorded for CSCCC1(C(=O)O)NC(c2ccccc2O)C2C(=O)N(C(C)C)C(=O)C21 (centres undefined) ?
Output: 0.875

Task: May I ask what inhibition has been recorded for COc1cccc(-c2nn(C)c3sc(C(=O)NCc4ccc5c(c4)OCO5)cc23)c1 ?
Output: 4.3

Task: May I ask what inhibition has been recorded for CC12CN3CC(C)(CN(C1)C3c1ccc(Br)cc1)C2=O (centres undefined) ?
Output: 0.265

Task: May I ask what inhibition has been recorded for Cc1cc(C)n(-c2nnc(C)n2/N=C/c2ccccc2OCc2ccccc2Cl)n1 ?
Output: 1.27

Task: May I ask what inhibition has been recorded for CC1CCCCN1CCNC(=O)c1cnn2ccccc12 (centres undefined) ?
Output: 2.58

Task: May I ask what inhibition has been recorded for N#Cc1ccccc1N=C1CCCN1Cc1ccccc1 ?
Output: 0.63

Task: May I ask what inhibition has been recorded for CC(=O)c1ccc(N2CCN(C(=O)c3ccc(NC(=O)C4CCCO4)cc3)CC2)cc1 (centres undefined) ?
Output: 2.3

---

test_description: Restrictive medium S. cerevisiae growth inhibition, OD615, pilot screen of yeast lifespan reduction project, restrictive growth control (AID 706);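 also: modified DeaD lifespan yeast strain shifted to restrictive glucose medium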
study_conditions: OD615, 48 h, at 10 µM, stronger effect = higher value
property_measured: growth inhibition (%)
Supply the numeric figure in %, leaving out any unit text.

Field: example entries. Status: answers known.
>>> number("COc1ccc(NC(=O)C2CCCN2S(=O)(=O)c2ccc3c(c2)CCC(=O)N3)cc1Cl (stereo not drawn)")
-23.7
>>> number("COc1ccccc1S(=O)Cc1ccc(C(=O)NC2CCCC2)o1 (stereo not drawn)")
4.6
>>> number("O=C(NCCCN1CCCCC1)C1(S(=O)(=O)c2ccc(Cl)cc2)CC1")
-14

Task: May I ask what growth inhibition has been recorded for COc1ccc(C)cc1NC(=O)CSc1nnc(-c2ccc(C)cc2)o1 ?
Output: 30.3

---

test_description: OD615 S. cerevisiae growth inhibition, permissive medium, pilot counter-assay, permissive growth control for S. cerevisiae lifespan shortening project (AID 705)
study_conditions: OD615, 24 h, at 10 µM, stronger effect = higher value
property_measured: growth inhibition (%)
Supply the numeric figure in %, leaving out any unit text.

Field: example entries. Status: answers known.
>>> number("CCc1nc(SCC(=O)c2ccc(C)c(C)c2)n[nH]1")
-9.29
>>> number("CC(=O)c1c(C)oc(C)c1CSCc1ccc(C(=O)O)o1")
-4.54
>>> number("CCCCCn1c(=O)[nH]c2cc(C(=O)NCc3ccc4c(c3)OCO4)ccc2c1=O")
-12.1

Now for another entry.
Task: May I ask what growth inhibition has been recorded for Cc1ccc(C)c(SCC(=O)OCC(=O)c2ccco2)c1 ?
Output: -21.2

---

# reported viability; entries follow
test_description: reducers of endogenous Her2 protein level, primary screen, SKBR3 breast tumor cells, AlphaScreen, ATP viability (AID 461);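 as to viability: percent of carrier control wells set as 100% viability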
study_conditions: 18-24 h, measured here: SKBR3 viability, ATP luminescence, at 10 µM
Square brackets hold non-standard residues; d marks the D form. Peptide text beside a SMILES is read from it. ξ: configuration not given here. ξV = CC(C)C(N)C(=O)O
Supply the numeric figure in %, leaving out any unit text.

Field: example entries. Status: answers known.
>>> number("Cc1nnc(SCc2nc3ccccc3s2)n1-c1ccccc1")
88
>>> number("CCc1nc(NCCCN2CCOCC2)c2oc3ccccc3c2n1")
88
>>> number("CCOC(=O)NC1(NCc2ccccc2)Oc2ccccc2O1")
92.5
>>> number("Cc1[nH]c2ccccc2c(=O)c1CN(C)Cc1ccccc1")
92.5
>>> number("COC(=O)c1ccc(CSc2nc3c(cnn3-c3ccc(C)c(C)c3)c(=O)[nH]2)o1")
90

Task: May I ask what viability has been recorded for O=c1oc2ccccc2c(O)c1C=NCc1ccccn1 ?
Output: 88

Task: May I ask what viability has been recorded for O=C(CN(CCc1ccccc1)C(=O)CNS(=O)(=O)c1ccccc1)NCC1CCCO1 (stereo unspecified) ?
Output: 91

Task: May I ask what viability has been recorded for CC(=O)NC(C(=O)NCC(N)=O)C(C)C (stereo unspecified) (Ac-[ξV]-Gly-NH2) ?
Output: 90

Task: May I ask what viability has been recorded for O=C(NCc1ccccc1)c1ccc(OC2CSC2)cc1 ?
Output: 88

Task: May I ask what viability has been recorded for CN1/C(=C\C(=O)C(F)F)C(C)(C)c2ccccc21 ?
Output: 90

Task: May I ask what viability has been recorded for O=c1cc(-c2ccccc2)[nH]c2nc3ccccc3n12 ?
Output: 90.5

---

test_description: reversal of MRP1-mediated doxorubicin resistance, pilot screen, H69AR cells, doxorubicin co-treatment (AID 601)
study_conditions: H69AR cells + 2 uM doxorubicin, CellTiter-Glo, 72 h; measured here: viability with 2 uM doxorubicin; at 10 µM; stronger effect = lower value
property_measured: viability (%)
Supply the numeric figure in %, leaving out any unit text.

Field: example entries. Status: answers known.
>>> number("Cc1cccc(N2CN=c3s/c(=C\\c4ccncc4)c(=O)n3C2)c1")
91
>>> number("CCCC(=O)N1c2ccccc2NC2=C(C(=O)CCC2)C1c1ccc(F)cc1 (stereo not drawn)")
91.7

Task: May I ask what viability has been recorded for CCc1ccccc1NC(=O)CSc1ncn[nH]1 ?
Output: 94
